Assay: Lipophilicity, logD of the compound in octanol/water at pH 7.4 by shake flask method
Format: physicochemical
Here, each record is paired with measured logD data.
assay readout: logD

1. Cc1coc(S(=O)(=O)Nc2ccc(Cl)c3c(Cl)c[nH]c23)c1 | 3.7
2. COc1ccc(NS(=O)(=O)c2cccc(C#N)c2)c2[nH]cc(C#N)c12 | 2.2
3. CN(C)C(=O)c1nc(S(=O)(=O)Nc2ccc(Cl)c3c(Cl)c[nH]c23)cn1C | 2.2
4. Cc1cc(S(=O)(=O)Nc2ccc(Cl)c3c(Cl)c[nH]c23)sc1C(=O)N(C)C | 3.1
5. CNC(=O)[C@H]1CCN(C(=O)c2oc(S(=O)(=O)Nc3ccc(Cl)c4c(Cl)c[nH]c34)cc2C)C1 | 2
6. CNC(=O)[C@@H]1CCN(C(=O)c2oc(S(=O)(=O)Nc3ccc(Cl)c4c(Cl)c[nH]c34)cc2C)C1 | 2
